# melting point per entry
Give the value in °C but do not write °C after it.

Here is how some compounds turned out for melting point.
INSERT INTO measurements (compound, readoutnumber) VALUES
  ('C[C@H]1CN(c2ccc(C(F)(F)F)cc2)C(=O)c2c(-c3ccnc(N4CCC4)c3)cnn21 [compound 102]', 129.8),
  ('C[C@H]1CN(c2ccc(C(F)(F)F)cc2)C(=O)c2c(-c3ccnc(C(F)(F)F)c3)cnn21 [compound 99]', 126.4),
  ('COc1cc(N2C[C@H](C)n3ncc(-c4ccncc4)c3C2=O)ccc1C(F)(F)F [compound 64]', 273.9);

COc1cc(N2C[C@H](C)n3ncc(-c4ccnc(C)c4)c3C2=O)cc(F)c1F [compound 84] yielded melting point of 101.2

Query C[C@H]1CN(c2ccc(Cl)c(Cl)c2)C(=O)c2c(-c3ccnc(C#N)c3)cnn21 [compound 109] yields melting point of 149.8

Measured melting point, Cc1cc(-c2cnn3c2C(=O)N(c2cccc(C(F)(F)F)c2)C[C@@H]3C)ccn1 [compound 23] : 139.2

So, C[C@H]1CN(c2ccc(C(F)(F)F)cc2)C(=O)c2c(-c3ccc(C#N)nc3)cnn21 [compound 151] ? Its melting point was 157.6

Notebook: C[C@H]1CN(c2ccc(S(F)(F)(F)(F)F)cc2)C(=O)c2c(-c3ccncc3)cnn21 [compound 56] , melting point read as 199

Values were extracted from patent US10106542B2.
